Species: Rattus norvegicus
Test: Open TG-GATES - Regimen: Daily Repeat
Format: toxicity, organism-based, Sprague-Dawley
Design: regimen Daily Repeat, gender Male, age 6 weeks
Settings: in vivo, po, 1000 mg/kg, 72 h, tissue Blood, route gavage, dose level High, time 3 day
The entries below come with measured RBC values attached.
Numeric answer only, unit x10_4/ul assumed.

COC1=CC(=O)C[C@@H](C)[C@]12Oc1c(Cl)c(OC)cc(OC)c1C2=O    637.2

Entry NC(N)=Nc1nc(CSCCC(N)=NS(N)(=O)=O)cs1 has what RBC?
607

Another molecule to look at: CCOc1ccc(NC(=O)CC(C)O)cc1 (stereo unspecified)
620

Another molecule to look at: COc1ccc2[nH]c([S+]([O-])Cc3ncc(C)c(OC)c3C)nc2c1 (stereo unspecified)
662.2

Another molecule to look at: CC(C)OC(=O)C(C)(C)Oc1ccc(C(=O)c2ccc(Cl)cc2)cc1 [FENOFIBRATE]
610.6

Another molecule to look at: CCOC(=O)CCC(=O)O[C@H]1[C@H](O[C@@H]2[C@@H](C)[C@H](O[C@H]3C[C@@](C)(OC)[C@@H](O)[C@H](C)O3)[C@@H](C)C(=O)O[C@H](CC)[C@@](C)(O)[C@H](O)[C@@H](C)C(=O)[C@H](C)C[C@@]2(C)O)O[C@H](C)C[C@@H]1N(C)C [ERYTHROMYCIN ETHYLSUCCINATE]
679.6

* * *

The entries below come with measured K values attached.
Organism: Rattus norvegicus
Assay: Open TG-GATES - Regimen: Daily Repeat
Assay type: toxicity, organism-based, Sprague-Dawley
Parameters: regimen Daily Repeat, gender Male, age 6 weeks
Conditions: in vivo, po, 1000 mg/kg, 72 h, tissue Plasma, route gavage, dose level High, time 3 day
Numeric answer only, unit meq/L assumed.

COC1=CC(=O)C[C@@H](C)[C@]12Oc1c(Cl)c(OC)cc(OC)c1C2=O    3.8
CCOC(=O)CCC(=O)O[C@H]1[C@H](O[C@@H]2[C@@H](C)[C@H](O[C@H]3C[C@@](C)(OC)[C@@H](O)[C@H](C)O3)[C@@H](C)C(=O)O[C@H](CC)[C@@](C)(O)[C@H](O)[C@@H](C)C(=O)[C@H](C)C[C@@]2(C)O)O[C@H](C)C[C@@H]1N(C)C [ERYTHROMYCIN ETHYLSUCCINATE]    4.2
COc1ccc2[nH]c([S+]([O-])Cc3ncc(C)c(OC)c3C)nc2c1 (stereo not given)    3.8
CCOc1ccc(NC(=O)CC(C)O)cc1 (stereo not given)    4.3

Kindly review the next compound as well.
Entry CC(C)OC(=O)C(C)(C)Oc1ccc(C(=O)c2ccc(Cl)cc2)cc1 [FENOFIBRATE] has what K?
4.3

* * *

The entries below come with measured MCHC values attached.
Organism: Rattus norvegicus
Assay: Open TG-GATES - Regimen: Daily Repeat
Type: toxicity, organism-based, Sprague-Dawley
Parameters: regimen Daily Repeat, gender Male, age 6 weeks
Conditions: in vivo, po, 1000 mg/kg, […], tissue Blood, route gavage, dose level High, time 7 day
Numeric answer only, unit % assumed.

Some solved cases for reference:
COC1=CC(=O)C[C@@H](C)[C@]12Oc1c(Cl)c(OC)cc(OC)c1C2=O    34.2
NC(N)=Nc1nc(CSCCC(N)=NS(N)(=O)=O)cs1    35.5
CCOC(=O)CCC(=O)O[C@H]1[C@H](O[C@@H]2[C@@H](C)[C@H](O[C@H]3C[C@@](C)(OC)[C@@H](O)[C@H](C)O3)[C@@H](C)C(=O)O[C@H](CC)[C@@](C)(O)[C@H](O)[C@@H](C)C(=O)[C@H](C)C[C@@]2(C)O)O[C@H](C)C[C@@H]1N(C)C [ERYTHROMYCIN ETHYLSUCCINATE]    33.9
COc1ccc2[nH]c([S+]([O-])Cc3ncc(C)c(OC)c3C)nc2c1 (stereo unspecified)    34.4
CCOc1ccc(NC(=O)CC(C)O)cc1 (stereo unspecified)    32.9

Entry CC(C)OC(=O)C(C)(C)Oc1ccc(C(=O)c2ccc(Cl)cc2)cc1 [FENOFIBRATE] has what MCHC?
32.3

* * *

Species on record: Rattus norvegicus
Assay: Open TG-GATES - Regimen: Daily Repeat
Assay type: toxicity, organism-based, Sprague-Dawley
Design: regimen Daily Repeat, gender Male, age 6 weeks
Conditions: in vivo, po, 300 mg/kg, […], tissue Plasma, route gavage, dose level Middle, time 14 day
The entries below come with measured Na values attached.
Numeric answer only, unit meq/L assumed.

Some solved cases for reference:
CCOc1ccc(NC(=O)CC(C)O)cc1 (stereo not given) [BUCETIN]    143.4
CCOC(=O)CCC(=O)O[C@H]1[C@H](O[C@@H]2[C@@H](C)[C@H](O[C@H]3C[C@@](C)(OC)[C@@H](O)[C@H](C)O3)[C@@H](C)C(=O)O[C@H](CC)[C@@](C)(O)[C@H](O)[C@@H](C)C(=O)[C@H](C)C[C@@]2(C)O)O[C@H](C)C[C@@H]1N(C)C [ERYTHROMYCIN ETHYLSUCCINATE]    141.8
COc1ccc2[nH]c([S+]([O-])Cc3ncc(C)c(OC)c3C)nc2c1 (stereo not given) [OMEPRAZOLE]    141.4
NC(N)=Nc1nc(CSCCC(N)=NS(N)(=O)=O)cs1 [FAMOTIDINE]    140.2

Kindly review the next molecule as well.
Entry COC1=CC(=O)C[C@@H](C)[C@]12Oc1c(Cl)c(OC)cc(OC)c1C2=O [GRISEOFULVIN] has what Na?
140.2

* * *

The entries below come with measured MCHC values attached.
Species on record: Rattus norvegicus
Experiment: Open TG-GATES - Regimen: Single
Format: toxicity, organism-based, Sprague-Dawley
Design: regimen Single, gender Male, age 6 weeks
Conditions: in vivo, po, 0 mg/kg, 3 h, tissue Blood, route gavage, dose level Control
Numeric answer only, unit % assumed.

Some solved cases for reference:
CCCNC(=O)NS(=O)(=O)c1ccc(Cl)cc1 [CHLORPROPAMIDE]    32.9
C[C@@H]1C[C@H]2[C@@H]3CCC4=CC(=O)C=C[C@]4(C)[C@@]3(F)[C@@H](O)C[C@]2(C)[C@@]1(O)C(=O)CO    32.7
CCOc1ccc(NC(=O)CC(C)O)cc1 (centres undefined)    33.2

Entry CN(C)CCN(Cc1cccs1)c1ccccn1 has what MCHC?
32.5

Another compound to look at: NNC(=O)c1ccncc1
35.7

* * *

Organism: Rattus norvegicus
Assay: Open TG-GATES - Regimen: Single
Assay type: toxicity, organism-based, Sprague-Dawley
Design: regimen Single, gender Male, age 6 weeks
Details: in vivo, po, 1000 mg/kg, 9 h, tissue Plasma, route gavage, dose level High
AST less than 70 IU/L is label 1; AST greater than or equal to 70 IU/L is label 0.

Hi there! Is AST for CC(C)OC(=O)C(C)(C)Oc1ccc(C(=O)c2ccc(Cl)cc2)cc1 [FENOFIBRATE] below 70 IU/L, do you know?
label 0

Another compound to look at: COC1=CC(=O)C[C@@H](C)[C@]12Oc1c(Cl)c(OC)cc(OC)c1C2=O
label 1

Another compound to look at: NC(N)=Nc1nc(CSCCC(N)=NS(N)(=O)=O)cs1
label 1

Another compound to look at: CCOC(=O)CCC(=O)O[C@H]1[C@H](O[C@@H]2[C@@H](C)[C@H](O[C@H]3C[C@@](C)(OC)[C@@H](O)[C@H](C)O3)[C@@H](C)C(=O)O[C@H](CC)[C@@](C)(O)[C@H](O)[C@@H](C)C(=O)[C@H](C)C[C@@]2(C)O)O[C@H](C)C[C@@H]1N(C)C [ERYTHROMYCIN ETHYLSUCCINATE]
label 0

Another compound to look at: COc1ccc2[nH]c([S+]([O-])Cc3ncc(C)c(OC)c3C)nc2c1 (stereo not given)
label 1

* * *

Species: Rattus norvegicus
Assay: Open TG-GATES - Regimen: Daily Repeat
Assay type: toxicity, organism-based, Sprague-Dawley
Design: regimen Daily Repeat, gender Male, age 6 weeks
Conditions: in vivo, po, 300 mg/kg, […], tissue Plasma, route gavage, dose level Middle, time 14 day
The entries below come with measured ALT values attached.
Numeric answer only, unit IU/L assumed.

Some solved cases for reference:
CCOc1ccc(NC(=O)CC(C)O)cc1 (centres undefined)    34.2
CCOC(=O)CCC(=O)O[C@H]1[C@H](O[C@@H]2[C@@H](C)[C@H](O[C@H]3C[C@@](C)(OC)[C@@H](O)[C@H](C)O3)[C@@H](C)C(=O)O[C@H](CC)[C@@](C)(O)[C@H](O)[C@@H](C)C(=O)[C@H](C)C[C@@]2(C)O)O[C@H](C)C[C@@H]1N(C)C [ERYTHROMYCIN ETHYLSUCCINATE]    35

Entry NC(N)=Nc1nc(CSCCC(N)=NS(N)(=O)=O)cs1 has what ALT?
40.2

Another compound to look at: COC1=CC(=O)C[C@@H](C)[C@]12Oc1c(Cl)c(OC)cc(OC)c1C2=O
32
